- test-system: UniProt P49841
- Sequence (P49841 whole entry): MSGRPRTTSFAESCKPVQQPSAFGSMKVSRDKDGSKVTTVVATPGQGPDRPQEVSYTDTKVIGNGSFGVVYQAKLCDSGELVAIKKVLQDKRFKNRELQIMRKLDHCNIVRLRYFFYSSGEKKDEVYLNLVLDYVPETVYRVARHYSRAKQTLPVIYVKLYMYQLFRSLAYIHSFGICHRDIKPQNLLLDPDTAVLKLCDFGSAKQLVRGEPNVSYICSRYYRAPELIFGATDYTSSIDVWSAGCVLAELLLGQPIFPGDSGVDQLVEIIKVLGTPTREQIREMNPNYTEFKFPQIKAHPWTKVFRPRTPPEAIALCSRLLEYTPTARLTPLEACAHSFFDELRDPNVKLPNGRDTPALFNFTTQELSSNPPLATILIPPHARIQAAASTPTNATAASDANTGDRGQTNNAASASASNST
- assay-notes: In vitro enzymatic activity assay, GSK3β
- Format: biochemical
- Design: Full length human GSK3α or GSK3B expressed as N-terminal GST fusion proteins; GST (N); purchased Carna Biosciences (Japan); host or cells: baculovirus host
- test-parameters: 1.0 mM ATP, 1.0 μM peptide substrate, 120 min, 25° C, read-out: Enzyme GSK3β (IC50)
Where a name gives a salt, the structure may show the parent alone.
value-kind: pIC50
Friendly reminder that pIC50 comes from taking -log10 of the concentration in mol/L.

## Input Give the measured pIC50 of Nc1ncn(-c2c(Cl)cc(Cl)cc2Cl)c(=O)c1C(=O)Nc1cncc([C@@H]2CCCCN2)c1 .
## Output 6.46

## Input Give the measured pIC50 of CCOC[C@H](N)c1cncc(NC(=O)c2c(N)ncn(-c3c(Cl)cc(COC)cc3Cl)c2=O)c1 (single isomer, unassigned) .
## Output 6.27

## Input Give the measured pIC50 of COCc1cc(Cl)c(-n2cnc(N)c(C(=O)Nc3cncc([C@@H](C)N)c3)c2=O)c(Cl)c1 (single isomer, unassigned) [Example 67] .
## Output 6.98

## Input Give the measured pIC50 of CCNCc1cncc(NC(=O)c2c(N)ncn(-c3c(C)cc(CC(F)F)cc3C)c2=O)c1 .
## Output 5.90

## Input Give the measured pIC50 of CCCOc1cc(C)c(-n2cnc(N)c(C(=O)Nc3cncc([C@H]4CCCCN4)c3)c2=O)c(C)c1 .
## Output 6.53

## Input Give the measured pIC50 of CCOc1c(CN)cccc1NC(=O)c1c(N)ncn(-c2c(Cl)cccc2Cl)c1=O .
## Output 6.51

## Input Give the measured pIC50 of COCc1cc(Cl)c(-n2cnc(N)c(C(=O)Nc3cncc([C@@H](C)N)c3)c2=O)c(Cl)c1 (single isomer, unassigned) [Example 66] .
## Output 6.46

## Input Give the measured pIC50 of COCC[C@@H](N)c1cncc(NC(=O)c2c(N)ncn(-c3c(Cl)cccc3Cl)c2=O)c1 (single isomer, unassigned) .
## Output 6.07

## Input Give the measured pIC50 of Cc1cc([C@@H](C)F)cc(C)c1-n1cnc(N)c(C(=O)Nc2cncc([C@H]3CCCCN3)c2)c1=O (single isomer, unassigned) [Example 184] .
## Output 6.76

## Input Give the measured pIC50 of COC[C@H](N)c1cncc(NC(=O)c2c(N)ncn(-c3c(Cl)cc(OC(F)F)cc3Cl)c2=O)c1 (single isomer, unassigned) .
## Output 6.64

## Input Give the measured pIC50 of Cc1cc(C(F)CF)cc(C)c1-n1cnc(N)c(C(=O)Nc2cncc(C3CCCCCN3)c2)c1=O (single isomer, unassigned) [Example 115] .
## Output 6.44

## Input Give the measured pIC50 of COCc1cc(Cl)c(-n2cnc(N)c(C(=O)Nc3cncc(CNCCO)c3)c2=O)c(Cl)c1 .
## Output 6.68

## Input Give the measured pIC50 of NCc1cccc(NC(=O)c2c(N)ncn(-c3c(Cl)cccc3Cl)c2=O)c1OC(F)F [Example 170, trifluoroacetate] .
## Output 6.28
